Documented inhibition at 6 µM across a set of molecules
STUDY_SYSTEM: human RORγt LBD (Homo sapiens, UniProt P51449)
Construct: expressed in transfected cells
PROCEDURE_SUMMARY: RORγt reporter assay (GAL4-RORγt LBD luciferase in HEK293T cells)
Format: cell-based
CONDITIONS: HEK-293T, read-out: RORγt reporter Assay, % inhibition @ 6 μM, HEK293T cells, 6 μM compound
Give the value in % but do not write % after it.

See these solved cases before continuing.
> print(dat)
                                   molecule   property.measured  observed.result
1  CC(C)Oc1c(-c2ccccc2)c(Cl)nc2ccc(C(O)(c3ccncc3)c3cncn3C)cc12 (stereo not shown) [Example 85]  inhibition at 6 µM               92
2  Cn1cncc1C(O)(c1ccc(Cl)cc1)c1cc2c(Cl)c(-c3ccccc3)c(Cl)nc2cc1F (stereo not shown) [Example 161]  inhibition at 6 µM              104
3  CCc1nc2ccc(C(O)(c3ccc(F)cc3)c3cccnc3)cc2c(Cl)c1-c1ccccc1 (stereo not shown) [Example 30]  inhibition at 6 µM               93
4  CN(C)c1c(-c2ccccc2)c(Cl)nc2ccc(C(O)(c3ccc(F)cc3)c3cccnc3)cc12 (stereo not shown) [Example 39]  inhibition at 6 µM               86
5  Cc1ccc(C(O)(c2cc(C)c3nc(Cl)c(-c4ccccc4)c(Cl)c3c2)c2cncn2C)cn1 (stereo not shown) [Example 156]  inhibition at 6 µM               98

Field request: inhibition at 6 µM | item: CC(C)Oc1nc2ccc(C(O)(c3ccncc3)c3cncn3C)cc2c(N(C)C)c1-c1ccccc1 (stereo not shown) [Example 90]
96

Field request: inhibition at 6 µM | item: OC(c1ccc(C(F)(F)F)cc1)(c1cccnc1)c1ccc2nc(Cl)c(-c3ccccc3)c(Cl)c2c1 (stereo not shown) [Example 171]
85

Field request: inhibition at 6 µM | item: CN(C)CCN(C)c1nc2ccc(C(O)(c3ccncc3)c3cncn3C)cc2c(Cl)c1-c1ccccc1 (stereo not shown) [Example 64]
87

----------
Test system: IL-17 production by CD4 T cells
PROCEDURE_SUMMARY: Human Th17 assay (IL-17 production by CD4 T cells under Th17 differentiation conditions)
Assay type: cell-based
CONDITIONS: Homo sapiens, CD4+ T, 72 h, IL-17 in supernatant after 3 days
PROPERTY_MEASURED: IC50
Answer format: number, then unit.

See these solved cases before continuing.
> print(dat)
                                   compound  property.measured  observed.result
1  CCOc1nc2ccc(C(O)(c3ccncc3)c3cncn3C)cc2c(N(C)C)c1-c1ccccc1 (centres unmarked)               IC50           150 nM
2  CN(C)c1c(-c2ccccc2)c(Cl)nc2ccc(C(O)(c3cccnc3)c3cncn3C)cc12 (centres unmarked)               IC50           770 nM
3  Cn1cncc1C(O)(c1ccc2nc(C(F)(F)F)c(-c3ccccc3)c(C(F)(F)F)c2c1)c1ccccn1 (single isomer, unassigned) [Example 185b]               IC50            96 nM
4  COC(c1ccncc1)(c1ccc2nc(N(C)C)c(-c3ccccc3)c(Cl)c2c1)c1cncn1C (centres unmarked)               IC50           240 nM
5  COc1cccc(C(O)(c2ccc(Cl)nc2)c2ccc3nc(Cl)c(-c4ccccc4)c(Cl)c3c2)c1 (centres unmarked)               IC50           190 nM

Field request: IC50 | item: CC(C)Oc1nc2ccc(C(O)(c3cccnc3)c3cccc(Cl)c3)cc2c(Cl)c1-c1ccccc1 (centres unmarked)
1300 nM

Field request: IC50 | item: OC(c1ccc(Cl)cc1)(c1cccnc1)c1ccc2nc(-c3cncnc3)c(-c3ccccc3)c(Cl)c2c1 (centres unmarked)
1200 nM

Field request: IC50 | item: Cn1cncc1C(O)(c1ccnc(F)c1)c1ccc2nc(Cl)c(-c3ccccc3)c(Cl)c2c1 (centres unmarked)
37 nM

----------
STUDY_SYSTEM: human RORγt ligand binding domain (RORγt LBD) (Homo sapiens, UniProt P51449)
Construct: His-tag (N); TurboTEV protease cleavage site (ENLYFQG) (N)
PROCEDURE_SUMMARY: RORγt ThermoFluor assay (thermal shift, ligand binding affinity)
CONDITIONS: estimated from concentration response of thermal shift
PROPERTY_MEASURED: pKd
Please treat pKd as minus the base-10 logarithm of the molar concentration.

See these solved cases before continuing.
> print(dat)
                                   molecule  observed.result
1  Cn1cncc1C(O)(c1cccnc1)c1ccc2ncc(-c3ccccc3)c(Cl)c2c1 (stereo not shown)             5.74
2  CN(C)c1ccc(C(O)(c2ccc3nc(Cl)c(-c4ccccc4)c(Cl)c3c2)c2cncn2C)cn1 (stereo not shown)             5.96
3  Cn1cncc1C(O)(c1ccc2nc(C(F)(F)F)c(-c3ccccc3)c(C(F)(F)F)c2c1)c1ccccn1 (single isomer, unassigned) [Example 185c]             6.12

Please examine the following record next.
Field request: pKd | item: OC(c1ccc(Cl)nc1)(c1cccc(F)c1)c1ccc2nc(Cl)c(-c3ccccc3)c(Cl)c2c1 (stereo not shown)
7.26

----------
STUDY_SYSTEM: human RORγt LBD (Homo sapiens)
Construct: expressed in transfected cells
Sequence (P51449 258-518): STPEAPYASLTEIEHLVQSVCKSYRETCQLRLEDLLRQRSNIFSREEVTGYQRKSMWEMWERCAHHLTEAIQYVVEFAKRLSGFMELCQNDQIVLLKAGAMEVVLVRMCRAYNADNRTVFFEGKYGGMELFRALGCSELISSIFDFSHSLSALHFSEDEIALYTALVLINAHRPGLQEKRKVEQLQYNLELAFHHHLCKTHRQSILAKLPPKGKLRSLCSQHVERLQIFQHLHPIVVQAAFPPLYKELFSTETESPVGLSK
PROCEDURE_SUMMARY: RORγt reporter assay (GAL4-RORγt LBD luciferase in HEK293T cells)
Format: cell-based
CONDITIONS: HEK-293T, read-out: RORγt reporter Assay, % inhibition @ 6 μM, HEK293T cells, 6 μM compound
Documented inhibition at 6 µM across a set of compounds
Give the value in % but do not write % after it.

> print(dat)
                                    compound                    study.system  measurement.units  observed.result
 1  COc1ccc(C(O)(c2cccnc2)c2ccc3nc(N(C)C)c(-c4ccccc4)c(Cl)c3c2)cc1 (stereo not drawn)  human RORγt LBD (Homo sapiens)                  %               98
 2  Cc1ccc(C(O)(c2cccc(Cl)c2)c2ccc3nc(Cl)c(-c4ccccc4)c(Cl)c3c2)cn1 (stereo not drawn)  human RORγt LBD (Homo sapiens)                  %               95
 3  CCCCN(C)c1nc2ccc(C(O)(c3ccncc3)c3cncn3C)cc2c(Cl)c1-c1ccccc1 (stereo not drawn)  human RORγt LBD (Homo sapiens)                  %              100
 4  CC(=O)N1CCC(C(O)(c2cccnc2)c2ccc3nc(Cl)c(-c4ccccc4)c(Cl)c3c2)CC1 (stereo not drawn)  human RORγt LBD (Homo sapiens)                  %               98
 5  Cn1cncc1C(O)(c1ccc(C(F)(F)F)nc1)c1ccc2nc(C(F)(F)F)c(-c3ccccc3)c(C#N)c2c1 (single isomer, unassigned) [Example 173b]  human RORγt LBD (Homo sapiens)                  %              100
 6  OC(c1ccc(C(F)(F)F)nc1)(c1cccc(Cl)c1)c1ccc2nc(Cl)c(-c3ccccc3)c(Cl)c2c1 (stereo not drawn)  human RORγt LBD (Homo sapiens)                  %               77
 7  Cn1ccnc1C(O)(c1ccnnc1)c1ccc2nc(Cl)c(-c3ccccc3)c(Cl)c2c1 (stereo not drawn)  human RORγt LBD (Homo sapiens)                  %               72
 8  OC(c1ccc(Cl)nc1)(c1cccc(F)c1)c1ccc2nc(Cl)c(-c3ccccc3)c(Cl)c2c1 (stereo not drawn)  human RORγt LBD (Homo sapiens)                  %               90
 9  Cn1c(C(O)(c2ccc(Cl)cc2)c2ccc3nc(Cl)c(-c4ccccc4)c(Cl)c3c2)cnc1Cl (stereo not drawn)  human RORγt LBD (Homo sapiens)                  %               99
10  Cn1cncc1C(O)(c1cccnc1)c1cc(F)c2nc(Cl)c(-c3ccccc3)c(Cl)c2c1 (stereo not drawn)  human RORγt LBD (Homo sapiens)                  %               90

Field request: inhibition at 6 µM | item: CN(C)c1c(-c2ccccc2)c(Cl)nc2ccc(C(O)(c3cccnc3)c3cncn3C)cc12 (stereo not drawn)
97

Field request: inhibition at 6 µM | item: Cn1cncc1C(O)(c1ccc(Cl)nc1)c1ccc2nc(Cl)c(-c3ccccc3)c(Cl)c2c1 (stereo not drawn)
106

Field request: inhibition at 6 µM | item: Cc1cc(C(O)(c2ccc3nc(Cl)c(-c4ccccc4)c(Cl)c3c2)c2cncn2C)on1 (stereo not drawn)
103

Field request: inhibition at 6 µM | item: CN1CCCC(C(O)(c2cccnc2)c2ccc3nc(Cl)c(-c4ccccc4)c(Cl)c3c2)C1 (stereo not drawn)
43

Field request: inhibition at 6 µM | item: CN(C)c1nc2ccc(C(O)(c3ccccn3)c3cncn3C)cc2c(Cl)c1-c1ccccc1 (stereo not drawn)
98
